So I've got a bunch of molecules here, and I need their ΔTm at 10 µM values.
target-or-system: STARD5 (Homo sapiens, UniProt Q9NSY2)
Construct: STARD5(6-213); host or cells: E. coli BL21(DE3)
Sequence (Q9NSY2 6-213): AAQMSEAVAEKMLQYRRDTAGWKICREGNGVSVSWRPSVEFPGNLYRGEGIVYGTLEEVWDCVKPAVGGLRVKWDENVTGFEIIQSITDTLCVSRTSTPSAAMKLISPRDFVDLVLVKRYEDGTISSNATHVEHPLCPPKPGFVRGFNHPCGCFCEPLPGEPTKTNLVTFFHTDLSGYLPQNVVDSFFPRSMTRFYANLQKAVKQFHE
experiment-summary: Differential scanning fluorimetry (DSF), STARD5
Assay type: binding
stated-conditions: single dose, Dose = 10 µM
Give just the number in °C; leave the unit off.

Q: System STARD5 (Homo sapiens, UniProt Q9NSY2). Read-out ΔTm at 10 µM. Item C[C@]12CC[C@@H]3C[C@H]1CC[C@@]21C(=Nc2ccc(C(F)(F)F)cc21)O3 [Compound 15g] . Report value.
Ans: 0.9

Q: System STARD5 (Homo sapiens, UniProt Q9NSY2). Read-out ΔTm at 10 µM. Item C[C@]12CC[C@@H]3C[C@H]1CC[C@@]21C(=Nc2c(F)cc(Cl)cc21)O3 [Compound 15i] . Report value.
Ans: 0.109

Q: System STARD5 (Homo sapiens, UniProt Q9NSY2). Read-out ΔTm at 10 µM. Item CC12CCC3CC1CCC21C(=Nc2ccc(N4CCOCC4)cc21)O3 (racemic) [Compound 19a] . Report value.
Ans: 1.8

Q: System STARD5 (Homo sapiens, UniProt Q9NSY2). Read-out ΔTm at 10 µM. Item `C[C@]12CC[C@@H](O)C[C@H]1CCC[C@]21NC(=O)c2ccccc2N1` . Report value.
Ans: 0.0253

Q: System STARD5 (Homo sapiens, UniProt Q9NSY2). Read-out ΔTm at 10 µM. Item C[C@]12CC[C@@H](O)C[C@H]1CCC(=O)c1cc(Br)ccc1NC2=O [Compound 11b] . Report value.
Ans: 0.3

Q: System STARD5 (Homo sapiens, UniProt Q9NSY2). Read-out ΔTm at 10 µM. Item COc1ccc2c(c1)C(=O)CC[C@@H]1C[C@H](O)CC[C@]1(C)C(=O)N2 [Compound 11d] . Report value.
Ans: 0.0281

Q: System STARD5 (Homo sapiens, UniProt Q9NSY2). Read-out ΔTm at 10 µM. Item `C[C@]12CC[C@@H](O)C[C@H]1CCc1nc3ccccc3nc12` . Report value.
Ans: 0.5

Q: System STARD5 (Homo sapiens, UniProt Q9NSY2). Read-out ΔTm at 10 µM. Item `C[C@]12CC[C@@H](O)C[C@H]1CCC[C@]21Nc2ccccc2-n2cccc21` . Report value.
Ans: 0.138
